PROTOCOL DESCRIPTION: RP, Waters ACQUITY UPLC HSS T3, 100 × 2.1 mm, 1.8 µm, 30 °C, 0.3 mL/min, estimated dead time 0.73 min; A: water + 0.1% formic acid, pH 3; B: methanol + 0.1% formic acid, pH 3; gradient (min/%B) 0/0 6/0 56/100 60/100
PARTICULARS: stereoisomer not certain
PROPERTY LABEL: LC retention time
Form field: result (number plus unit)

Sample records with LC retention time:
C=CC(C)(CCC=C(C)C)OC(=O)c1ccccc1 (centres undefined) [linalyl benzoate]    50.8 min
N[C@@H](Cc1cnc[nH]1)C(=O)O    1.2 min
O=C(O)c1cc(O)cc(O)c1 [3,5-dihydroxybenzoic acid]    14.3 min
O=Cc1cccc(O)c1 [3-hydroxybenzaldehyd]    20.3 min
Cn1cnc2c1c(=O)[nH]c(=O)n2C    15.3 min
CCOC(N)=O    7.1 min

Record request: LC retention time value, item O=C(O)c1c(O)cccc1O [2,6-dihydroxybenzoic acid] 16.9 min

I would be grateful if you could share the reported LC retention time for N[C@@H](CO)C(=O)O . 1.22 min

Please look up its LC retention time: OCC1OC(OCC2OC(OC3(CO)OC(CO)C(O)C3O)C(O)C(O)C2O)C(O)C(O)C1O (centres undefined) 2.6 min

Need LC retention time of Cc1cc(O)c2c(c1)C(=O)c1cc(O)cc(O)c1C2=O , thanks. 46.4 min

Using the record for CC1OC(OCC2OC(Oc3c(-c4ccc(O)cc4)oc4cc(OC5OC(C)C(O)C(O)C5O)cc(O)c4c3=O)C(O)C(O)C2O)C(O)C(O)C1O (centres undefined) , report its LC retention time. 28.6 min

// query LC retention time value for entry C=C(C)C1CCC2(C)CCC3(C)C(CCC4C5(C)CCC(O)C(C)(C)C5CCC43C)C12 (centres undefined) 60 min

What value of LC retention time has been recorded for this entry: CCCCCCC(=O)O 36.1 min

What measured LC retention time goes with CC(O)(CC(=O)O)CC(=O)O [3-hydroxy-3-methyl glutaric acid] ? 7.04 min

Field request: LC retention time | item: O=C(O)CCC(=O)O 4.97 min

Can you look up the measured LC retention time of OCC1OC(O)C(O)C(O)C1O (centres undefined) for me? 1.35 min

Please give the measured LC retention time for this compound: CC(CCC(=O)O)C1CCC2C3CCC4CC(O)CCC4(C)C3CC(O)C12C (centres undefined) 49.6 min

Entry O=C(O)C(O)C(O)CO (centres undefined) : reported LC retention time = ? 1.45 min

So what's the measured LC retention time for this one? Oc1ccc(C2Oc3cc(O)c4c(c3C2c2cc(O)cc(O)c2)C2c3c(O)cc5c(c3C(C4c3ccc(O)cc3)C2c2ccc(O)cc2)C(c2cc(O)cc(O)c2)C(c2ccc(O)cc2)O5)cc1 (stereo not drawn) [vaticanol C like isomer] 29 min

FYI, the data here is from the RepoRT retention time repository (doi:10.1007/s11306-011-0298-z).
